Values compiled from BindingDB's records for doi:10.7270/Q2T43RJV.

# Assayed Target: Guanine nucleotide-binding protein G(o) subunit alpha (Homo sapiens)
# Sequence (P09471 whole entry): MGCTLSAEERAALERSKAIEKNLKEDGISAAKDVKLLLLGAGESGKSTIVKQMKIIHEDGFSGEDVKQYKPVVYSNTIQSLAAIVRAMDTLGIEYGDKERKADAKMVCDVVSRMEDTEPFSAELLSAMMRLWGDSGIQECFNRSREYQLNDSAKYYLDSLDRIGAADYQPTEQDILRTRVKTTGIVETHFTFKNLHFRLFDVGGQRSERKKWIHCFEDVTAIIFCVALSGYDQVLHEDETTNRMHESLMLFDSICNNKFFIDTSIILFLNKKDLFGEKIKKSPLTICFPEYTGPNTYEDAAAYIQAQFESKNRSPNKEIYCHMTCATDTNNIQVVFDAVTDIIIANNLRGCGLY
# Protocol Text: RGS4-Galphao interaction regulators, SAR follow-up, biochemical, multiplexed bead assay, additional SAR round (AID 2829)
Would you kindly list EC50 for each of these molecules?

Input line: Tell me the measured EC50 of NC(=O)c1sc2cc([N+](=O)[O-])ccc2c1Cl [KSC-1-100] , please.
Output line: > 30 µM

Input line: Entry O=C(NCCCn1ccnc1)c1sc2cc([N+](=O)[O-])ccc2c1Cl has what EC50?
Output line: > 30 µM

Input line: Fill blank: measured EC50 of the molecule O=C(NCCCN1CCOCC1)c1sc2cc([N+](=O)[O-])ccc2c1Cl is ____.
Output line: > 30 µM

Input line: // EC50 lookup, key: O=C(c1sc2cc([N+](=O)[O-])ccc2c1Cl)N1CCNCC1
Output line: > 30 µM

Input line: // EC50 lookup, key: Cc1ccc2c(Cl)c(C(=O)NCCCN3CCOCC3)sc2c1 [KUC103874N]
Output line: > 30 µM
